biological target: yeast histone H2A-H2B dimer (Saccharomyces cerevisiae) (UniProt P04911); assay: ITC; ITC200 at 20 °C; 0.5 mM ARB2 or mutant in the injector, 0.2 mM H2A/B or 0.25 mM H3/4 in the sample cell; 25 mM Tris-HCl pH 7.5, 200 mM NaCl; single-site fitting model
assay metric: pKd
Answer as the number alone; pKd is minus log10 of concentration in mol/L.

Value of measured pKd for the entry ARB2 domain of Hda1 (Hda1^457–698) (domain or fragment) LQKAIRQQQQHYLSDEFNFVTLPLVSMDLPDNTVLCTPNISESNTIIIVVHDTSDIWAKRNVISGTIDLSSSVIIDNSLDFIKWGLDRKYGIIDVNIPLTLFEPDNYSGMITSQEVLIYLWDNYIKYFPSVAKIAFIGIGDSYSGIVHLLGHRDTRAVTKTVINFLGDKQLKPLVPLVDETLSEWYFKNSLIFSNNSHQCWKENESRKPRKKFGRVLRCDTDGLNNIIEERFEEATDFILDS : 5.26

Values were extracted from paper PMC5036196.
